# Subject of test: human DGKζ (Homo sapiens (Human))
# Assay protocol: Human DGKζ kinase activity inhibition assay (ADP-Glo)
# Type: biochemical
# Test conditions: in vitro human DGKζ kinase activity inhibition assay; read-out: IC50
pIC50: −log10 of the molar value.

>  <Molecule>
CC(C(N)=O)N(c1cccnc1)c1nc(N)c(C(=O)c2ccccc2)s1 (single isomer, unassigned) [Example 79.2]

>  <pIC50>
5.62

$$$$
>  <Molecule>
CC(C(N)=O)N(c1ccc(Cl)c(F)c1)c1nc(N)c(C(=O)c2ccc(OC(F)F)cc2)s1 (single isomer, unassigned) [Example 48.1]

>  <pIC50>
8.75

$$$$
>  <Molecule>
CC(C(N)=O)N(c1ccc(F)cc1)c1nc(N)c(C(=O)c2ccc(C#N)cc2)s1 (single isomer, unassigned) [Example 33.2]

>  <pIC50>
7.64

$$$$
>  <Molecule>
CC(C(N)=O)N(c1ccc(F)c(F)c1)c1nc(N)c(C(=O)c2cccnc2)s1 (single isomer, unassigned) [Example 184.1]

>  <pIC50>
6.53

$$$$
>  <Molecule>
CC(C(N)=O)N(c1ccc(F)cc1)c1nc(N)c(C(=O)c2ccc(OC(F)(F)F)cc2)s1 (single isomer, unassigned) [Example 40.1]

>  <pIC50>
6.10

$$$$
>  <Molecule>
CC(C(N)=O)N(c1ccc(Cl)c(F)c1)c1nc(N)c(C(=O)c2ccccc2)s1 (racemic)

>  <pIC50>
7.65

$$$$
>  <Molecule>
C[C@H](C(N)=O)N(c1ccc(F)cc1)c1nc(N)c(C(=O)c2ccccc2)s1

>  <pIC50>
6.97

$$$$

----------
# Subject of test: human DGKζ (Homo sapiens (Human), UniProt Q13574)
# Sequence (Q13574 other isoform, or with tags, fused parts or gaps): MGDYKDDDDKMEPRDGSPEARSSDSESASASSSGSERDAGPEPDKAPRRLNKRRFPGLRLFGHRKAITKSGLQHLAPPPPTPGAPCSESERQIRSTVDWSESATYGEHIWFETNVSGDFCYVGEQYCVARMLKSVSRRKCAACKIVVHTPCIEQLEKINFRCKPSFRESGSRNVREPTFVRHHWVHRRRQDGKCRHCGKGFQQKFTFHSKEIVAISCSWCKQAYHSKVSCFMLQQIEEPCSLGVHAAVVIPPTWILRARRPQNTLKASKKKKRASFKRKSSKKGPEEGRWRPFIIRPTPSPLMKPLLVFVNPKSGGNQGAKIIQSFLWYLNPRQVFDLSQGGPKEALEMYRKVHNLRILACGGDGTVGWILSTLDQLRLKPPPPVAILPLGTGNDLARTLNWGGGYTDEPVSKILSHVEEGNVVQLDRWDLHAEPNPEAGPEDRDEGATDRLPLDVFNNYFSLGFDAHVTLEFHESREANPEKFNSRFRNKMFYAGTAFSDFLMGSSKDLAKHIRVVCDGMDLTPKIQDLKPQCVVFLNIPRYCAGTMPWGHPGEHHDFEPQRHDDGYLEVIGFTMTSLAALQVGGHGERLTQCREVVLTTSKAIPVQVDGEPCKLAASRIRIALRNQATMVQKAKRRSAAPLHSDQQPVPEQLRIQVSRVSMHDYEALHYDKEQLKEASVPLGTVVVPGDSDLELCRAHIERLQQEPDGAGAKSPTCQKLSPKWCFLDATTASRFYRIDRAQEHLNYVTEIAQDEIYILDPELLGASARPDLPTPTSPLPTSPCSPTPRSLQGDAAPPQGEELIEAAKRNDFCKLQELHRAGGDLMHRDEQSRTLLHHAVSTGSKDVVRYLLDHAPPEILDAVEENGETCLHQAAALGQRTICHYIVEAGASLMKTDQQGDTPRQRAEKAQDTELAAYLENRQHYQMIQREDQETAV
# Assay protocol: Human DGKζ kinase activity inhibition assay (ADP-Glo)
# Format: biochemical
# Test conditions: in vitro human DGKζ kinase activity inhibition assay; read-out: IC50
The label condition met is reserved for IC50 strictly under 200 nM; condition not met covers values equal to or above it.

>  <Compound>
CC(C(N)=O)N(c1cccnc1)c1nc(N)c(C(=O)c2ccccc2)s1 (racemic) [Example 79]

>  <Subject of test>
human DGKζ (Homo sapiens (Human), UniProt Q13574)

>  <Group label>
condition not met

$$$$
>  <Compound>
COc1ccc(CNC(=O)COc2ccc(C(=O)c3sc(N(c4ccc(F)cc4)C(C)C(N)=O)nc3N)cc2)cc1 (racemic) [Example 124]

>  <Subject of test>
human DGKζ (Homo sapiens (Human), UniProt Q13574)

>  <Group label>
condition met

$$$$
>  <Compound>
CC(C(N)=O)N(c1cccc(F)c1)c1nc(N)c(C(=O)c2ccccc2)s1 (racemic) [Example 74]

>  <Subject of test>
human DGKζ (Homo sapiens (Human), UniProt Q13574)

>  <Group label>
condition met

$$$$
>  <Compound>
CC(C(N)=O)N(c1ccc(F)cc1)c1nc(N)c(C(=O)c2cccc(OC(F)F)c2)s1 (racemic) [Example 183]

>  <Subject of test>
human DGKζ (Homo sapiens (Human), UniProt Q13574)

>  <Group label>
condition not met

$$$$
>  <Compound>
CC(C(N)=O)N(c1ccc(F)cc1)c1nc(N)c(C(=O)c2ccc(N3CCC(C)(C#N)CC3)nc2)s1 (racemic) [Example 285]

>  <Subject of test>
human DGKζ (Homo sapiens (Human), UniProt Q13574)

>  <Group label>
condition met

$$$$
>  <Compound>
CC(C(N)=O)N(c1ccc(F)cc1)c1nc(N)c(C(=O)c2cccc(F)c2)s1 (racemic) [Example 16]

>  <Subject of test>
human DGKζ (Homo sapiens (Human), UniProt Q13574)

>  <Group label>
condition not met

$$$$
